- System: KM12
- PROTOCOL_DESCRIPTION: NCI tumour cell line growth inhibition, 48 h
Activity calls are given as the source filed them. Rule as the data show it: active = GI50 up to about 1.1 µM and inactive = higher.
Reported GI50 values follow for various molecules

C=C(C)C[C@H](Sc1nc2ccccc2s1)[C@H](C)O | 41.2 µM (inactive)
COc1ccc(-c2cc(=O)c3ccc(O)cc3o2)cc1OC | 59.3 µM (inactive)
O=C(Cc1csc(N/N=C2\C(=O)Nc3ccccc32)n1)Nc1ccccc1 | 29.2 µM (inactive)
CC(=O)OCC(OC(C)=O)C(OC(C)=O)C(OC(C)=O)C(C=NN(C(C)=O)S(=O)(=O)c1ccc(/C=C2\NC(=O)NC2=O)cc1)OC(C)=O (stereo not given) | > 100 µM (inactive)
O=S(=O)(/C=C/C=C/S(=O)(=O)c1ccccc1)c1ccccc1 | 2.29 µM (inactive)

For the molecule N#CC(C(=O)CCC(=O)Nc1ccc(Cl)c(Cl)c1)c1ccccc1 (stereo not given) , give its reported GI50.
> 100 µM (inactive)

Provide measured GI50 value, entry: NCCN1C(=O)C2C3c4ccccc4C(c4ccccc43)C2C1=O (stereo not given)
> 100 µM (inactive)

Quickly give me recorded GI50 for COC(=O)C(CCCCCCCC(C(=O)OC)C1=Nc2nnc(N)n2C1=O)C1=Nc2nnc(N)n2C1=O (stereo not given)
> 100 µM (inactive)

Please supply the value of reported GI50 for the item COc1cccc2ccc3c(c12)C(=O)OC31CCc2c(C)cccc21 (stereo not given)
23.7 µM (inactive)

Provide GI50 value for the following molecule: Oc1ccc2c3c1OC1c4[nH]ncc4C[C@H]4[C@@H](C2)N(CC2CC2)CC[C@]314 (stereo not given in full)
> 100 µM (inactive)

###

- Tested on: MDA-MB-435
- PROTOCOL_DESCRIPTION: NCI tumour cell line growth inhibition, 48 h
The source made the active and inactive calls. Cut-off read from the data, not from the text of the source: active = GI50 up to about 1.1 µM and inactive = higher.
Pick one and only one: t for active, f for inactive

N/C(=N\OC(=O)NC(Cl)=C(Cl)Cl)c1cc(C(F)(F)F)cc(C(F)(F)F)c1 | f
CC1=NN(c2nc(N)nc(CSc3cc(Cl)c(C)cc3S(N)(=O)=O)n2)C(C)(C)C1 | f
Cc1cccc(-n2c(C)nc3ccc(NC4OC(CO)C(O)C(O)C4O)cc3c2=O)c1 (stereo unspecified) | f
C=C1C(=O)OC2CC(C)C3C=CC(=O)C3CC12 (stereo unspecified) | f
CC(C)(C)[Si](C)(C)OCCOCn1cc(F)c(=O)[nH]c1=O | f
OCC1OC(O)C(/N=C\c2ccc3c(c2)OCO3)C(O)C1O (stereo unspecified) | f

So what was the verdict on COC(=O)CC(c1ccccc1)C(C#N)(OP1(=O)OC(c2ccccc2)C(C)N1C)c1ccccc1 (stereo unspecified) in this test?
f

Given COc1cc2c(cc1OC)C1(c3ccccc3)CN(C2)Cc2cc(OC)c(OC)cc21 , state the outcome it received in this test.
f

What did this assay record as the result for Cc1nc2sc(CCl)nn2c(=O)c1Cl ?
f

Assay outcome for Cc1[nH]c(=O)nc(S)c1C(=O)NC1C2CCCCC2NC2CCCCC21 (stereo unspecified) : what was it?
f

Answer briefly: the call reported for CN1C(=O)[C@@H]2[C@@H]3c4ccccc4N[C@@H]3c3[nH]c4ccccc4c3[C@@H]2C1=O in this assay.
f

Assay outcome for Clc1ccc(-c2cn3c(nc4ccccc43)c(/C=C/c3cccs3)n2)cc1 : what was it?
f

Hey, what did the test say about Cc1cc(O)c2c(c1O)C(=O)c1cccc(O)c1C2=O ?
f

Could you check what this test reported for CCN(CC)c1c(C(C)(C)C)c(=O)n2ccsc2c1OC(C)=O ?
f

Assay result, entry COC(=O)[C@H](Cc1c[nH]c2ccccc12)NC(=O)OCC1OC(n2cc(C)c(=O)[nH]c2=O)CC1N=[N+]=[N-] (stereo partly specified) — outcome?
f

Per the assay record, what outcome was assigned to CCNc1ncnc2sc(SCc3ccccc3)nc12 ?
f

Please share the test call associated with O=C(/C=C/c1ccc(O)c(O)c1)O[C@H]1CCCC[C@@H]1OC(=O)/C=C/c1ccc(O)c(O)c1 .
f

Assay result, entry Oc1c(N2CCCCC2)cc(-c2cc(N3CCCCC3)c(O)c3ccccc23)c2ccccc12 — outcome?
f

Fill in: this test's call for Nc1ccccc1C(=O)NC(=O)Nc1ccc(Oc2ncc(Br)cn2)c(Cl)c1 is ___
t

Would you mind telling me which call this test gave CC12CCC(=O)N1c1cncnc1N2 (stereo unspecified) ?
f

Tell me the assay call for CN(C)S(=O)(=O)Nc1ccccn1 please.
f

All figures here come from ChEMBL document CHEMBL1201862.
